assay: chemical genetic growth profiling, strain panel (AID 1159580);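 also: tested at 20 µM; growth read once vehicle control cultures reached saturation at 30 °C; 1 = growth at the plate median or of vehicle wells; lower values mean less growth of the strain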; conditions: S. cerevisiae deletion strains, growth OD, locus YOR144C, strain elg1, active compounds read low
Screen size: about 5,500 compounds; about 2,000 (36%) were called active. Roughly 18% stayed inconclusive and do not appear here. Some of the results follow.

compound	normalized growth
COc1ccc(C(=O)c2ccccc2O)c(O)c1	0.938
COc1c(CC=C(C)C)c2c(c3oc(=O)c(-c4ccc(OC(C)=O)cc4)c(OC(C)=O)c13)C=CC(C)(C)O2	1.01
OCCN(CCO)c1nc(N2CCCCC2)c2nc(N(CCO)CCO)nc(N3CCCCC3)c2n1	0.999
CO[C@H]1C[C@H](O[C@H]2[C@H](C)[C@@H](OC3O[C@H](C)C[C@H](N(C)C)[C@H]3O)[C@@H](C)C[C@]3(CO3)C(=O)[C@H](C)[C@@H](O)[C@@H](C)[C@@H](C)OC(=O)[C@@H]2C)O[C@@H](C)[C@@H]1O (stereo partly specified)	1
COc1ccc(-c2c(O)c3cc4c(c(CC=C(C)C)c3oc2=O)OC(C)(C)CC4)cc1	0.999
CC(C)CC1C(=O)N2CCC[C@H]2C2(O)O[C@](NC(=O)C3C=C4c5cccc6[nH]c(Br)c(c56)C[C@H]4N(C)C3)(C(C)C)C(=O)N12 (stereo partly specified)	0.979
COc1ccc2c(c1)C1(C)CCC(=O)CC1CC2 (stereo unspecified)	0.985
CC(C)N(C(=O)CCl)c1ccccc1	1.02
CC(C)=CCc1c(O)cc2oc(C)cc(=O)c2c1O	0.965
COC1C(O)C(O)C(O)[C@@H](O)C1O (stereo partly specified)	1.01
CC1(C)C2CC[C@]3(C)C(C(=O)C=C4[C@H]5C[C@@](C)(C(=O)O)CC[C@]5(C)CC[C@]43C)[C@@]2(C)CC[C@@H]1O (stereo partly specified)	1.02
COc1c(CC=C(C)C)c2c(c3oc(=O)c(-c4ccc(O)cc4)c(O)c13)C=CC(C)(C)O2	0.968
C=CC1=C(C(=O)O)N2C(=O)[C@@H](NC(=O)/C(=N/O)c3csc(N)n3)[C@H]2SC1	0.979
COc1cc(O)c(C(=O)c2ccccc2)cc1O	0.976
Cc1ccc2c(c1)CC[C@H]1CC(=O)CC[C@]21C	0.976
CC(C)=CCc1c(O)cc(C)oc1=O	0.964
N=c1nc(N2CCCCC2)cc(N)n1O	0.988
OCC(O)Cc1ccc2c(c1)OCO2 (stereo unspecified)	0.997
CNC1(C)C2CCC(C2)C1(C)C (stereo unspecified)	0.99
NC(=O)N1c2ccccc2CC(=O)c2ccccc21	0.986
C=CCc1ccc2c(c1)OCO2	0.988

* * *

test: chemical genetic growth profiling, strain panel (AID 1159580);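 also: tested at 20 µM; growth read once vehicle control cultures reached saturation at 30 °C; 1 = growth at the plate median or of vehicle wells; lower values mean less growth of the strain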; conditions: S. cerevisiae deletion strains, growth OD, locus YDR159W, strain sac3, active compounds read low
The whole screen tested about 5,500 compounds, of which about 2,000 (36%) were called active. Roughly 18% stayed inconclusive and do not appear here. This is one part of the list.

compound	normalized growth
CC(=O)[C@H]1CCC2C3C[C@H](C)C4=CC(=O)CC[C@]4(C)C3[C@@H](O)C[C@@]21C (stereo partly specified)	1.01
COc1cccc2c1CCC1CC(=O)CCC21C (stereo unspecified)	1.02
COC(=O)COc1cc(Cl)c(Cl)cc1Cl	0.973
CC1(C)S[C@@H]2[C@H](NC(=O)[C@H](NC(=O)N3CCNC3=O)c3ccccc3)C(=O)N2C1C(=O)O (stereo partly specified)	1
O=c1ccc2cc(O)c(O)cc2o1	0.968
CNc1ccccc1C(=O)N1CCc2c([nH]c3ccccc23)C1=O	1.03
COc1cc(OC)c2c(c1)O[C@H](c1ccc(OC)c(OC)c1)[C@@H](O)C2	0.95
COc1ccc2c(c1)C1(C)CCC(=O)CC1CC2 (stereo unspecified)	1.06
COc1ccc2c(c1)[C@@]1(C)CCC(=O)C[C@H]1CC2	0.937
CC(=O)O[C@H]1C(=O)[C@@]2(C)C([C@H](OC(=O)c3ccccc3)[C@]3(O)C[C@H](O)C(C)=C1C3(C)C)[C@]1(OC(C)=O)CO[C@@H]1C[C@@H]2O (stereo partly specified)	1.01
CCC1(c2ccc(N)cc2)CCC(=O)NC1=O (stereo unspecified)	0.979
CC(=O)O[C@]1(C(C)=O)CCC2C3C[C@H](C)C4=CC(=O)CC[C@]4(C)C3CC[C@@]21C (stereo partly specified)	0.971
COc1ccc(C(=O)c2ccccc2)c(O)c1	0.671
COc1cc(O)c(C(=O)c2ccccc2)cc1O	0.973
CCC1(C)CC(=O)NC1=O (stereo unspecified)	0.986
NCC1CCCCC1CC(=O)O (stereo unspecified)	0.98
CC1(C)C2CC[C@]3(C)C(C(=O)C=C4[C@H]5C[C@@](C)(C(=O)O)CC[C@]5(C)CC[C@]43C)[C@@]2(C)CC[C@@H]1O (stereo partly specified)	0.977
CC(=O)O[C@]1(C(C)=O)CCC2C3C=C(C)C4=CC(=O)CCC4(C)C3CCC21C (stereo partly specified)	0.892
COC(=O)C1[C@H]2C[C@H]3c4[nH]c5ccccc5c4CCN3C[C@@H]2CC[C@@H]1O (stereo partly specified)	0.925
CC(=O)O[C@]1(C(C)=O)CCC2C3C=C(Cl)C4=CC(=O)CC[C@]4(C)C3CC[C@@]21C (stereo partly specified)	0.925
COc1ccc(C(=O)c2ccccc2O)c(O)c1	0.757
